tested target: MASP-2 CCP2-SP (Homo sapiens (Human))
experimental details: MASP-2 co-crystallization, X-ray crystallography and structure analysis (H-bonds, van der Waals contacts)
measurement conditions: Table A5-2 pharmacophore distance, S3/S4 region
Tick true if d(N2,CA2) is 6 or greater. Tick false if d(N2,CA2) is less than 6.

C[C@H](NC(=O)C1C[C@@H](c2ccccc2)CCN1)C(=O)NCc1ccc(C(=N)N)cc1 (stereo in doubt)	false
Cc1nc(N)ccc1CNC(=O)C(C)NC(=O)C1CC(c2cccc3ccccc23)CCN1.Cl.Cl (stereo not drawn) [1297_3]	false
Cc1nc(N)ccc1CNC(=O)[C@H](C)NC(=O)[C@H]1C[C@@H](c2cccc3ccccc23)CCN1.Cl.Cl [1297_4]	false
C[C@H](NC(=O)[C@H](N)CCc1ccccc1)C(=O)NCc1ccc(C(=N)N)cc1	true
C[C@H](NC(=O)[C@H]1C[C@@H](c2ccccc2)CCN1)C(=O)NCc1cc(Cl)ccc1O.Cl [1078_14]	false

Record C[C@H](NC(=O)[C@H]1C[C@@H](c2ccccc2)CCN1)C(=O)NCc1ccc(C(=N)N)cc1 (stereo in doubt) ; criterion: d(N2,CA2) no lower than 6. Met? false

What do you get for C[C@H](NC(=O)[C@H](N)CCCc1ccccc1)C(=O)NCc1ccc(C(=N)N)cc1.Cl.Cl [1042_1] ? true

Repeat for the following molecule: C[C@H](NC(=O)[C@H]1C[C@@H](c2ccccc2)CCN1)C(=O)NCc1cc(Cl)ccc1O.Cl [1078_4] false

###

tested target: MASP-2 CCP2-SP (Homo sapiens (Human), UniProt O00187)
Sequence (O00187 445-686): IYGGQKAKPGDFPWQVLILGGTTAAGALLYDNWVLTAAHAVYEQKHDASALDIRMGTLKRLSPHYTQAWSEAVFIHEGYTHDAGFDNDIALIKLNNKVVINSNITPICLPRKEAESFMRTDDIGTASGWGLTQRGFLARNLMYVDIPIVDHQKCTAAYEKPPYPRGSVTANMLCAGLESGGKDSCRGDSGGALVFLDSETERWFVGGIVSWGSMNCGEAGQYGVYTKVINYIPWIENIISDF
Sequence (O00187 364-432 partner): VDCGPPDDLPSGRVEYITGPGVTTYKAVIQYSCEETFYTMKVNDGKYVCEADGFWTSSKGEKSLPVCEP
experimental details: MASP-2 co-crystallization, X-ray crystallography and structure analysis (H-bonds, van der Waals contacts)
measurement conditions: Table A7-1; between pharmacophore elements of the bound compound
Structures can show the parent of a compound that is named as a salt.
The compounds listed here are annotated with their Pharmacophore torsion angle a(O1, O2, N2, C2).
Just the number.

C[C@H](NC(=O)[C@H]1C[C@@H](c2ccccc2)CCN1)C(=O)NCc1cc(Cl)ccc1O.Cl [1078_8]	135.84
C[C@H](NC(=O)[C@H]1C[C@@H](c2ccccc2)CCN1)C(=O)NCc1cc(Cl)ccc1O.Cl [1078_9]	144.64
Cc1nc(N)ccc1CNC(=O)[C@H](C)NC(=O)[C@H]1C[C@@H](c2ccccc2)CCN1CCC(=O)O [compound 1411, Trifluoroacetate salt]	117.46
C[C@H](NC(=O)[C@H]1C[C@@H](c2ccccc2)CCN1)C(=O)NCc1ccc(C(=N)N)cc1 (stereo in doubt)	124.96
Cc1nc(N)ccc1CNC(=O)[C@H](C)NC(=O)[C@H]1C[C@@H](c2cccc3ccccc23)CCN1.Cl.Cl [1297_5]	111.81
C[C@H](NC(=O)[C@H]1Cc2c([nH]c3ccccc23)CN1)C(=O)NCc1ccc(C(=N)N)cc1.Cl.Cl [1097_1]	136.92

Now consider a different compound.
Pharmacophore torsion angle a(O1, O2, N2, C2) for Cc1nc(N)ccc1CNC(=O)[C@H](C)NC(=O)[C@H]1C[C@@H](c2ccccc2)CCN1C ? 117.29

###

tested target: UniProt:O00187
experimental details: MASP-2 co-crystallization, X-ray crystallography and structure analysis (H-bonds, van der Waals contacts)
measurement conditions: Table A2-3
Counter-ions that a name gives are not always drawn.
Quick list: van der Waals contact distance, MASP-2 PHE 529 atom CD2 per entry.
Could you keep your reply to the number by itself?

Sample answers from the record:
C[C@H](NC(=O)[C@H]1C[C@H](Cc2ccccc2)CN1)C(=O)NCc1cnc2[nH]cc(Cl)c2c1 [compound 1334]	3.73
Cc1cc(Cl)cc(CNC(=O)[C@H](C)NC(=O)[C@H]2C[C@H](Cc3ccccc3)CN2)c1O [compound 1307]	3.69
Cc1nc(N)ccc1CNC(=O)[C@H](C)NC(=O)[C@H]1C[C@H](Cc2cc(-c3ccccc3)cs2)CN1 [compound 1399, Dihydrochloride]	3.85

What measured van der Waals contact distance, MASP-2 PHE 529 atom CD2 goes with Cc1nc(N)ccc1CNC(=O)[C@H](C)NC(=O)[C@H]1C[C@@H](Cc2ccccc2)CCN1 [compound 1353] ? 3.68

Input Cc1nc(N)ccc1CNC(=O)[C@H](C)NC(=O)[C@H]1C[C@H](Cc2cc(Cl)cc(Cl)c2)CN1 [compound 1435, Dihydrochloride] 3.61

Field entry: C[C@H](NC(=O)[C@H]1C[C@H](Cc2ccccc2)CN1)C(=O)NCc1cc(Cl)ccc1-n1cnnn1 [compound 1371, Hydrochloride] 3.86

Another compound to check: Cc1nc(N)ccc1CNC(=O)[C@H](C)NC(=O)[C@H]1C[C@H](Cc2ccccc2)CN1 [compound 1304] 3.79

// query: Cc1nc(N)ccc1CNC(=O)[C@H](C)NC(=O)c1cc(Cc2ccccc2)n[nH]1 [compound 1367] 3.8
